// values below are reported absolute recovery
- assay_comment: absolute recovery over mixed-bed multilayer solid-phase extraction; higher = better recovery
- measurement_conditions: wastewater influent; enrichment method: SPE
# unit: % | format: bare number

Use the examples below as a reference point.
>  <compound>
CCOCN(C(=O)CCl)c1c(C)cccc1CC [Acetochlor B]

>  <absolute recovery / %>
91.6

$$$$
>  <compound>
CCC(C)C(=O)OC1CC(C)C=C2C=CC(C)C(CCC3CC(O)CC(=O)O3)C21 (stereo not drawn) [Lovastatin]

>  <absolute recovery / %>
59.5

$$$$
>  <compound>
Cc1cc(C)nc([N-]S(=O)(=O)c2ccc(N)cc2)n1 [Sulfamethazin]

>  <absolute recovery / %>
89.8

$$$$
>  <compound>
COc1nc(C)nc(NC(=O)[N-]S(=O)(=O)c2ccccc2CCC(F)(F)F)n1 [Prosulfuron]

>  <absolute recovery / %>
102

$$$$

Request: Which absolute recovery value belongs to C[N+](C)([O-])CCC(c1ccccc1)c1ccccn1 (stereo not drawn) [Pheniramine-N-oxide] ?
Result: 89

Request: What would you report for CCC1OC(=O)CC(O)C(C)C(OC2OC(C)C(OC3CC(C)(O)C(O)C(C)O3)C([NH+](C)C)C2O)C(CC=O)CC(C)C(=O)C=CC(C)=CC1COC1OC(C)C(O)C(OC)C1OC (stereo not drawn) [Tylosin] ?
Result: 72.2

Request: Now consider CCOP(=O)(OCC)OC(=CCl)c1ccc(Cl)cc1Cl [Chlorfenvinphos] and answer again.
Result: 86.9

Request: Also need Fc1ccc(C2(Cn3cncn3)OC2c2ccccc2Cl)cc1 (stereo not drawn) [Epoxiconazol] , thanks.
Result: 92.7

====

- assay_comment: absolute recovery over vacuum-assisted evaporative concentration; higher = better recovery
- measurement_conditions: wastewater effluent; enrichment method: VEC
experimental_endpoint: absolute recovery (%)
Reply numerically in %, unit not repeated.

Would you please look over these solved cases?
>  <compound>
O=C([O-])C=C(F)C(F)(F)C(F)(F)C(F)(F)C(F)(F)C(F)(F)F [6-2-FTUCA]

>  <numeric_result>
143

$$$$
>  <compound>
CNC(=O)Nc1ccc(C(C)C)cc1 [Isoproturon-monodemethyl (=1-(4-Isoprophenyl)-3-methylurea)]

>  <numeric_result>
105

$$$$

Request: For the compound shown here, O=P1(NCCCl)OCCCN1CCCl (centres undefined) [Ifosfamid] , give the reported absolute recovery.
Result: 102

Request: Same read-out for CSc1nc(NC2CC2)nc(NC(C)(C)C)n1 [Irgarol] ?
Result: 98

Request: Then what about the compound CN1C(=O)CN=C(C2=CCCCC2)c2cc(Cl)ccc21 [Tetrazepam] ?
Result: 105

Request: Also Cc1cc(Cl)ccc1OCC(=O)[O-] [MCPA] ?
Result: 102

Request: Try this compound too: CCOCCN(C(=O)CCl)C(=C(C)C)c1ccccc1 [Pethoxamid]
Result: 87.2

Request: Then what about the compound CC[NH+]1CCCC1CNC(=O)c1cc(S(=O)(=O)CC)c(N)cc1OC (centres undefined) [Amisulprid] ?
Result: 106

Request: Next compound: CCC(=O)C(CC(C)[NH+](C)C)(c1ccccc1)c1ccccc1 (centres undefined) [Methadon]
Result: 105

Request: Try Nc1[nH]c(=O)ncc1F [5-Fluoro-Cytosine] next.
Result: 107

====

- assay_comment: absolute recovery over mixed-bed multilayer solid-phase extraction; higher = better recovery
- measurement_conditions: surface water; enrichment method: SPE
# absolute recovery >= 90% gives true (1), anything below gives false (0)

>  <compound>
Cc1cc(N(C2OC(C(=O)[O-])C(O)C(O)C2O)S(=O)(=O)c2ccc(N)cc2)no1 (stereo not given) [Sulfamethoxazole-N1-Glucuronide]

>  <assigned_class>
false (0)

$$$$
>  <compound>
CC(C)N(C(=O)CS(=O)(=O)[O-])c1ccc(F)cc1 [Flufenacet-ESA]

>  <assigned_class>
false (0)

$$$$
>  <compound>
Nc1ccc(C=Cc2ccc(N)cc2S(=O)(=O)[O-])c(S(=O)(=O)[O-])c1 [4-4-diamino-2,2-stilbenedisulfonic-acid]

>  <assigned_class>
false (0)

$$$$
>  <compound>
COCCOCCOCCOCCOC [Tetraglyme]

>  <assigned_class>
false (0)

$$$$
>  <compound>
CC(C)(C)Nc1nc(N)nc(O)n1 [Terbutylazin-desethyl-2-hydroxy]

>  <assigned_class>
true (1)

$$$$

Request: Is it the case that CC([NH2+]C(C)(C)C)C(=O)c1cccc(Cl)c1 (stereo not given) [Bupropion] has absolute recovery reaching or exceeding 90%?
Result: false (0)
